observable: melting point

>>> df
                                   compound         result
0                          CNC(=O)c1ccccc1I  153 to 154 °C
1  CCOC(=O)C(C#N)(CCCN(C)CCc1ccc(OC)c(OC)c1)c1ccc(OC)c(OC)c1 (centres undefined)    77 to 78 °C
2  Cn1c(COc2ccc(CC3SC(=O)NC3=O)cc2)nc2ccc(Oc3ccc(NC(=O)c4cccnc4)cc3)cc21 (centres undefined)  213 to 215 °C

Query: Can you look up the measured melting point of COc1ccc(C(=O)c2c(Cc3ccccc3)sc(C)c2C)cc1 for me?
Result: 85 to 86 °C

###

observable: melting point

Below, each entry is followed by its recorded melting point result.
>>> print(df.to_string())
                                   molecule         result
0        CCCCNS(=O)(=O)c1ccc(S(N)(=O)=O)cc1  164 to 167 °C
1  CC1CC(=O)NN=C1c1ccc(NC(=O)C2(Cl)CC2)cc1 (centres undefined)  189 to 190 °C
2         CNC(=C[N+](=O)[O-])NCc1ccc(Cl)nc1  181 to 183 °C

Query: Can you look up the measured melting point of O=C(OCCOc1ccc2ncnn2n1)N1CCN(C(c2ccccc2)c2ccccc2)CC1 for me?
Result: 157 to 159 °C

###

observable: melting point

Query: Can you look up the measured melting point of O=C1c2ccccc2OCC1C(=O)C(F)(F)F (stereo unspecified) for me?
Result: 81 to 83 °C

Query: Can you look up the measured melting point of Ic1ccc(CCN2CCOCC2)cc1 for me?
Result: 64 to 67 °C

Query: Can you look up the measured melting point of CN(C)S(=O)(=O)c1ccc(N2CC(CO)OC2=O)cc1 (stereo unspecified) for me?
Result: 174 to 176 °C

###

Attribute: melting point

>>> df
                         compound         result
0  CCOP(=O)(Cc1ccc(C(=O)O)cc1)OCC  117 to 120 °C

Query: Can you look up the measured melting point of CC(C)(S)CNC(=O)c1nccnc1C(=O)O for me?
Result: 141 to 144 °C

Query: Can you look up the measured melting point of O=C(O)Cn1c(=O)c(=O)[nH]c2ccc3ccc(-n4ccc(CN5CC=C(c6ccccc6)CC5)c4)cc3c21 for me?
Result: > 250 °C

Query: Can you look up the measured melting point of CC(C)(C)c1ccc(OCC(O)CN2CCC3(CC2)CSC2=C(O3)c3cc(F)ccc3C(=O)C2=O)cc1 (stereo not drawn) for me?
Result: 114 to 116 °C

Query: Can you look up the measured melting point of Cc1cc(Cc2ccc(NC(=O)N(C)C)cn2)n(C)c1C(=O)c1ccc(Cl)cc1 for me?
Result: 227 to 230 °C

Query: Can you look up the measured melting point of COc1ccc(-n2c(=O)n(O)c(=O)c3cc(F)c(N4CCN(C)CC4)cc32)cc1 for me?
Result: 195 to 196 °C

###

observable: melting point

In [3]: df
Out[3]:
                                   molecule         result
0  Cc1ccc(Cc2cnc(NCCCCNc3ncccc3Cl)[nH]c2=O)cn1  180 to 182 °C
1  CCOC(=O)CCc1cn(Cc2cccnc2OCc2csc(-c3ccccc3)n2)nc1-c1ccccc1    88 to 89 °C
2  Cc1cc(C(N)=O)ncc1C(c1c(F)ccc(F)c1F)S(=O)(=O)CCC(F)(F)C(F)(F)F (stereo not drawn)  155 to 156 °C

Query: Can you look up the measured melting point of NC1CN(C(=O)Nc2ccc(C(F)(F)F)cc2)N=C1c1ccc(Cl)cc1 (stereo not drawn) for me?
Result: 144 to 146 °C

Query: Can you look up the measured melting point of CCOC(=O)c1cc(C)n(-c2cccc(I)c2)c1-c1ccccc1 for me?
Result: 143 to 144 °C

Query: Can you look up the measured melting point of O=C(Oc1cccc(C(F)(F)F)c1)c1cc2cc(CCl)ccc2oc1=O for me?
Result: 162 to 163 °C

Query: Can you look up the measured melting point of COc1ccc(OCc2ccccc2)c(C(=O)C=Cc2cccc([N+](=O)[O-])c2)c1 for me?
Result: 108 to 110 °C

Query: Can you look up the measured melting point of O=C(CCCSc1ccccc1)N1C(=O)OCC1Cc1ccccc1 (stereo not drawn) for me?
Result: 84 to 85 °C

Query: Can you look up the measured melting point of c1ccc(C2=NOC3(CCNCC3)C2)cc1 for me?
Result: 115 °C

Query: Can you look up the measured melting point of O=[N+]([O-])N=C1NCCN1Cc1ccc(F)nc1 for me?
Result: 121 to 124 °C

Query: Can you look up the measured melting point of COC(=O)CN1CCN(c2cccc(-c3nc4cc(OC)cc(OC)c4c(=O)[nH]3)n2)CC1 for me?
Result: 176 to 177 °C

Hey, just so you know, these numbers are from a melting point compilation (Tetko et al.; mined from patent text by program, amines drawn as free bases though some values may be those of a salt).
